pKi data for H3 receptors (Cavia porcellus) follow.
Formally, pKi is defined as -log10 of the concentration c, with c in mol/L.

Check out these entries, answers already filled in.
- molecule: "CN(CCc1ccc(Cl)cc1)C(=O)/C=C/c1ccc(Cc2c[nH]cn2)cc1"
  pKi: 7.46
- molecule: "O=C(/C=C/c1ccc(Cc2c[nH]cn2)cc1)Nc1ccc(OC(F)(F)F)cc1"
  pKi: 8.00
- molecule: "O=C(/C=C/c1ccc(Cc2c[nH]cn2)cc1)NCCc1ccccc1"
  pKi: 7.77
- molecule: "CC(Cc1ccc(Cl)cc1)NC(=O)/C=C/c1ccc(Cc2c[nH]cn2)cc1 (centres unmarked)"
  pKi: 8.00

// next entry
Value of pKi reported for the molecule O=C(/C=C/c1ccc(Cc2c[nH]cn2)cc1)NCCc1ccc(Cl)cc1 is 8.15
